Test system: RD cells
Assay details: Cytotoxicity assay (CellTiter-Glo 2.0) on RD cells; note: test concentration or dose not given here
Type: cell-based, Human
Particulars: 2 day-treatment
Metric name: Cytotoxicity

Compound	Recorded result
CSc1cc(Oc2ccnc3c2OCC(=O)N3)ccc1NC(=O)Nc1cc(C(C)(C)C)nn1-c1cccc(CN(C)C)c1 [Compound 041]	+++ (cytotoxicity ≥ 85%)
CSc1cc(Oc2ccnc3c2OCC(=O)N3)ccc1NC(=O)Nc1cc(C(C)(C)C)nn1-c1ccc(CCN(C)C)cc1 [Compound 051]	+++ (cytotoxicity ≥ 85%)
CSc1cc(Oc2ccnc3c2CCC(=O)N3)ccc1NC(=O)Nc1cc(C(C)(C)C)nn1-c1cccc(CN(C)C)c1 [Compound 050]	+++ (cytotoxicity ≥ 85%)

====

Tested on: 4T1 cells
Assay details: Epithelial-mesenchymal transition marker expression by qRT-PCR
Assay type: cell-based, Mouse
Set-up: key: ↗: increased expression; ↘: decreased expression; =: unchanged expression levels
Particulars: 24 hours, expression normalized against RPL13

Molecule	Epithelial markers EpCAM
CSc1cc(Oc2ccnc3c2OCC(=O)N3)ccc1NC(=O)Nc1cc(C(C)(C)C)no1 [Compound 020]	=
CSc1cc(Oc2ccnc3c2OCC(=O)N3)ccc1NC(=O)Nc1cc(C(C)(C)C)nn1-c1ccccc1 [Compound 006]	↗
Cc1ccc(-n2nc(C(C)(C)C)cc2NC(=O)Nc2ccc(Oc3ccnc4c3CCC(=O)N4)cc2C(F)(F)F)cn1 [Compound 017]	↗
CC(C)(C)c1cc(NC(=O)Nc2ccc(Oc3ccnc4c3CCC(=O)N4)cc2C(F)(F)F)on1 [Compound 023]	=
CSc1cc(Oc2ccnc3c2CCC(=O)N3)ccc1NC(=O)Nc1cc(C(C)(C)C)nn1-c1ccc(C)nc1 [Compound 032]	↗
CC(C)(C)c1cc(NC(=O)Nc2ccc(Oc3ccnc4c3CCC(=O)N4)cc2C(F)(F)F)n(-c2cncc(F)c2)n1 [Compound 016]	↗
CSc1cc(Oc2ccnc3c2OCC(=O)N3)ccc1NC(=O)Nc1cc(C(C)(C)C)nn1-c1cncc(F)c1 [Compound 018]	↗
CSc1cc(Oc2ccnc3c2CCC(=O)N3)ccc1NC(=O)Nc1cc(C(C)(C)C)nn1-c1cncc(F)c1 [Compound 027]	=

====

Test system: EoL-1 cells
Assay details: Cytotoxicity assay (CellTiter-Glo 2.0) on EoL-1 cells; note: test concentration or dose not given here
Type: cell-based, Human
Particulars: incubation 1 day

Molecule	Cytotoxicity
CSc1cc(Oc2ccnc3c2CCC(=O)N3)ccc1NC(=O)Nc1cc(C(C)(C)C)nn1-c1cccc(CN2CCOCC2)c1 [Compound 047]	+++ (cytotoxicity ≥ 85%)
CSc1cc(Oc2ccnc3c2CCC(=O)N3)ccc1NC(=O)Nc1cc(C(C)(C)C)nn1-c1cccc(F)c1 [Compound 013]	+++ (cytotoxicity ≥ 85%)
CSc1cc(Oc2ccnc3c2CCC(=O)N3)ccc1NC(=O)Nc1cc(C(C)(C)C)nn1-c1ccc(C)nc1 [Compound 032]	+++ (cytotoxicity ≥ 85%)

====

System: RD cells
Assay details: Cytotoxicity assay (CellTiter-Glo 2.0) on RD cells; note: test concentration or dose not given here
Format: cell-based, Human
Particulars: 4 day-treatment
Metric name: Cytotoxicity

Chemical smiles	Tgt	Metric name	Recorded result
CSc1cc(Oc2ccnc3c2OCC(=O)N3)ccc1NC(=O)Nc1cc(C(C)(C)C)nn1-c1ccc(CN(C)C)cc1	RD cells	Cytotoxicity	+++ (cytotoxicity ≥ 85%)
CSc1cc(Oc2ccnc3c2CCC(=O)N3)ccc1NC(=O)Nc1cc(C(C)(C)C)nn1-c1ccc(C)nc1	RD cells	Cytotoxicity	+++ (cytotoxicity ≥ 85%)
